# TARGET OR TEST SYSTEM: Human Thyroid Hormone Receptor α1 (TRα1) (Homo sapiens)
# Construct: expressed in transfected cells; host or cells: 293T cells
# Sequence (P10827 1-410 isoform P10827-2): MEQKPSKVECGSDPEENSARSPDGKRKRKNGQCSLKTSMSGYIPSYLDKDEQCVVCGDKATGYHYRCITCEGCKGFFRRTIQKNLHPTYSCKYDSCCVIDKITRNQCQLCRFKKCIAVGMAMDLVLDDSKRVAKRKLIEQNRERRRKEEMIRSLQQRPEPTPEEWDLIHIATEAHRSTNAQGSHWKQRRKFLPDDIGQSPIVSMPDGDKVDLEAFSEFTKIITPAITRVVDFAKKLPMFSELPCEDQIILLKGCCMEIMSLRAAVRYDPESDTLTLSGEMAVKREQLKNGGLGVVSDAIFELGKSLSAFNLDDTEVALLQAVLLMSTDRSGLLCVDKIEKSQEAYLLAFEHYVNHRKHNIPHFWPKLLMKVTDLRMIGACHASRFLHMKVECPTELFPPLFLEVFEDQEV
# PROCEDURE TEXT: Transcription activation test of human thyroid hormone receptor α1 (luciferase reporter in 293T cells)
# Type: cell-based
# TEST SETTINGS: ratio TRα/TRβ of the transcription activation EC50 values
MEASURED PARAMETER: selectivity (TRα/TRβ)

Cc1cc(OC(C)(C)C(=O)O)cc(C)c1Cc1ccc(O)c(C2CCCCC2)n1 : B (2<(TRα/TRβ)<5)
Cc1cc(OCC(=O)O)c(C)c(C)c1Cc1ccc(O)c(C(=O)N(C)CCc2ccccc2)n1 : B (2<(TRα/TRβ)<5)
Cc1cc(OCc2noc(=O)[nH]2)c2c(c1Cc1ccc(O)c(C3CCCCC3)n1)CCO2 : B (2<(TRα/TRβ)<5)
Cc1cc(OCC(=O)O)c(Br)c(C)c1Cc1ccc(O)c(C2CCCCC2)n1 : A (5<(TRα/TRβ))
Cc1cc(OCc2noc(=O)[nH]2)cc(C)c1Cc1ccc(O)c(-c2ccc3ccccc3c2)n1 : A (5<(TRα/TRβ))

Ask: Entry CCc1cc(OCC(=O)O)c(C)c(C)c1Cc1ccc(O)c(-c2cccc(F)c2)n1 : reported selectivity (TRα/TRβ) = ?
Result: A (5<(TRα/TRβ))

Ask: Entry Cc1cc(NC(=O)CC(=O)O)c(F)c(C)c1Cc1ccc(O)c(C2CCCCCC2)n1 : reported selectivity (TRα/TRβ) = ?
Result: A (5<(TRα/TRβ))

Ask: Entry Cc1cc(OCc2noc(=O)[nH]2)c(F)c(C)c1Cc1ccc(O)c(N2CCCCC2)n1 : reported selectivity (TRα/TRβ) = ?
Result: B (2<(TRα/TRβ)<5)

Ask: Entry Cc1nc(OCC(=O)O)c(C)c(C)c1Cc1ccc(O)c(C2CCCCC2)n1 : reported selectivity (TRα/TRβ) = ?
Result: A (5<(TRα/TRβ))

Ask: Entry Cc1cc(OCC(=O)O)c(C)c(C)c1Cc1ccc(O)c(C2CCCCO2)n1 (stereo not shown) : reported selectivity (TRα/TRβ) = ?
Result: A (5<(TRα/TRβ))

Ask: Entry Cc1cc(OCC(=O)O)c(C#N)c(C)c1Cc1ccc(O)c(C2CCCCC2)n1 : reported selectivity (TRα/TRβ) = ?
Result: B (2<(TRα/TRβ)<5)

Ask: Entry Cc1cc(OCC(=O)O)c(C)c(C)c1Cc1ccc(O)c(C2CCCCC2)n1 : reported selectivity (TRα/TRβ) = ?
Result: A (5<(TRα/TRβ))

Ask: Entry Cc1cc(OCC(=O)O)c(C)c(C)c1Cc1ccc(O)c(C(C)C)n1 : reported selectivity (TRα/TRβ) = ?
Result: B (2<(TRα/TRβ)<5)

Ask: Entry CCCOc1cccc(-c2nc(Cc3c(C)cc(OCc4noc(=O)[nH]4)c(F)c3C)ccc2O)c1 : reported selectivity (TRα/TRβ) = ?
Result: A (5<(TRα/TRβ))

Ask: Entry Cc1cc(OCC(=O)O)c(F)c(C)c1Cc1ccc(O)c(C2CCCCC2)n1 : reported selectivity (TRα/TRβ) = ?
Result: B (2<(TRα/TRβ)<5)
